assay.overview: COS7 lysate on small-molecule microarray, probe aHis, 635 nm (AID 1123);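 note: z-score combines 667nm fluorescence intensity with signal-to-noise per printed compound spot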
conditions: COS7 cell lysate, fluorescence, higher = more signal
readout.name: composite z-score

compound=COCCCNC(=O)[C@@H]1c2ccccc2C(=O)N(CC23CC4CC(CC(C4)C2)C3)[C@H]1c1ccc(CO)cc1 recorded_result=1.34
compound=CCCCCCc1nc(-c2cc(C)c(OC)c(C)c2)cc2c1[Si](C(C)C)(C(C)C)O[C@H]2c1ccccc1 recorded_result=-0.301
compound=CO[C@H]1O[C@H](CO)[C@@H](OC(=O)Nc2ccc3c(c2)OCO3)[C@H](OC(=O)Nc2ccccc2)[C@@H]1OC(=O)Nc1ccccc1 recorded_result=3

From here, focus on the item given below.
Task: Suppose we examine the compound "C[C@@H]1CC[C@H]2C(=O)N3[C@@H](CC[C@@H](C)[C@@H]3c3cccc(N4CCOCC4)c3)C(=O)N2[C@H]1c1cccc(Br)c1" ; what composite z-score value has been reported?
Output: 0.425

---

test.system: Dihydroorotate dehydrogenase (quinone), mitochondrial (Plasmodium falciparum (isolate 3D7))
assay.overview: PfDHODH enzyme inhibitors, primary screen, biochemical, C-terminal His tag, absorbance 600 nm (AID 1175);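 note: recombinant parasite enzyme with a five histidine tag at its C terminus; test concentration not given here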
conditions: DCIP absorbance 600 nm, higher = more signal, called active from +8 up or from −8 down
readout.name: composite z-score
Please state the value as a number alone, without comment.

compound=Cc1ccc(S[C@]2(C(=O)NC(C)C)CC(=O)N(C3Cc4ccccc4C3)[C@@H]2c2ccc(CO)cc2)cc1 readout_name="composite z-score" recorded_result=-0.335
compound=COCCOC(=O)N1C(=O)[C@@]2(c3cc(C#CCNC(N)=O)ccc31)[C@H](c1ccc(OCCO)cc1)N1[C@H](c3ccccc3)[C@H](c3ccccc3)OC(=O)[C@H]1[C@@H]2C(=O)Nc1nc2ccccc2s1 readout_name="composite z-score" recorded_result=0.665
compound=C[C@@H]1CC[C@H]2C(=O)N3CCC[C@H]3C(=O)N2[C@H]1c1ccc(Br)cc1 readout_name="composite z-score" recorded_result=0.238
compound=C=C(CCCC)/C(=C/C[C@H](OC(=O)c1ccncc1)c1cccc(OCCO)c1)c1cc(C(=O)OC)ccc1OC readout_name="composite z-score" recorded_result=-1.61
compound=COc1ccc([Si](C)(C)[C@H]2[C@H](CCO)O[C@@]3(C(=O)N(Cc4ccccc4)c4ccc(N5C(=O)c6cccc7cccc5c67)cc43)[C@@H]2C)cc1 readout_name="composite z-score" recorded_result=0.386

From here, focus on the item given below.
Task: Suppose we examine the compound N#Cc1ccc(NN2C(C(O)c3ccc(I)cc3)C=CC3C(=O)N(c4ccccc4)C(=O)C32)cc1 (stereo unspecified) ; what composite z-score value has been reported?
Output: -0.165

---

test.system: Calmodulin-1 (Homo sapiens) (UniProt P0DP23)
assay.overview: calcium-bound CALM1 binders on microarrays, profiling panel, artefact control for SMM control-protein annotation, biochemical, small-molecule microarray, Cy5-labelled CALM1, plus calcium (AID 1112);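 note: score merges spot fluorescence with signal to noise from triplicate slides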
conditions: Cy5-CALM1 binding fluorescence, higher = more signal
Parameter threshold = -0.07. Response is Criterion met when composite z-score meets or exceeds it, else Criterion not met.

Worked examples follow.
compound=CN(C)CCCC[C@@H]1NC(=O)[C@@H]2C[C@H](C(=O)O)[C@H](c3ccc(O)cc3)N2C1=O group="Criterion met"
compound=COCCOC(=O)N1C(=O)[C@@]2(c3cc(C#CC4=CCCCC4)ccc31)[C@H](c1ccc(O)cc1)N1[C@H](c3ccccc3)[C@H](c3ccccc3)OC(=O)[C@H]1[C@@H]2C(=O)N1CCCCCCC1 group="Criterion met"
compound=COc1cc(CO)cc(I)c1O[C@H]1C=C(C(=O)NCCO)C[C@@H](NCCc2c[nH]c3ccccc23)[C@@H]1O group="Criterion not met"
compound=C=CC[C@]1(C(=O)N2CCCCC2)N=C(c2ccc(OCCCO)cc2)O[C@H]1c1ccccc1N=[N+]=[N-] group="Criterion met"
compound=Cc1ccc(S[C@]2(C(=O)NC(C)C)CC(=O)N(C3Cc4ccccc4C3)[C@@H]2c2ccc(CO)cc2)cc1 group="Criterion not met"

Task: Identify whether the reported composite z-score of the following compound is -0.07 or greater: "CCCN1C(=O)[C@@]2(CCS(=O)(=O)c3ccccc3)N=C(c3ccc(OCCCO)cc3)O[C@H]2c2ccccc21"
Output: Criterion not met

Task: Same question for "Cc1ccc(N2C(=O)c3ccccc3[C@@H](C(=O)NCC(F)(F)F)[C@@H]2c2ccc(CO)cc2)nc1" please.
Output: Criterion not met

---

test.system: Dihydroorotate dehydrogenase (quinone), mitochondrial (Plasmodium falciparum (isolate 3D7))
assay.overview: PfDHODH enzyme inhibitors, primary screen, biochemical, C-terminal His tag, absorbance 600 nm (AID 1175);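 note: recombinant parasite enzyme with a five histidine tag at its C terminus; test concentration not given here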
conditions: DCIP absorbance 600 nm, higher = more signal, called active from +8 up or from −8 down
List of composite z-score values.
Please state the value as a number alone, without comment.

entry_smiles=COC(=O)C(CC#Cc1ccc2c(c1)[C@]1(C(=O)N2)[C@H](C(=O)N2CCCCCCC2)[C@H]2C(=O)O[C@H](c3ccccc3)[C@H](c3ccccc3)N2[C@@H]1c1ccc(O)cc1)C(=O)OC recorded_result=-0.665
entry_smiles=COc1ccc([Si](C)(C)[C@H]2[C@H](CCO)O[C@@]3(C(=O)N(Cc4ccc(N5CCCCC5=O)cc4)c4ccccc43)[C@@H]2C)cc1 recorded_result=-5.37
entry_smiles=COCCOC(=O)N1C(=O)[C@@]2(c3cc(C#CC4=CCCCC4)ccc31)[C@H](C(=O)NC[C@H](O)c1ccccc1)[C@H]1C(=O)O[C@H](c3ccccc3)[C@H](c3ccccc3)N1[C@@H]2c1ccc(OCCO)cc1 recorded_result=-0.773
entry_smiles=C=CC[C@@]1(C(=O)N2CCOCC2)N=C(c2ccc(OCCCO)cc2)O[C@@H]1c1ccccc1 recorded_result=0.702

From here, focus on the item given below.
Task: Suppose we examine the molecule "CO[C@H]1COC(=O)[C@@H](C)NC(=O)CC=C[C@@H](C)[C@H](OC)COC(=O)CC=C[C@@H]1C" ; what composite z-score value has been reported?
Output: -0.336

---

assay.overview: PSAC antagonists in infected red cells, primary screen, cell-based, P. falciparum Indochina, OD700, 2 h (AID 1155);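 note: lysis reports solute entry through the parasite surface anion channel PSAC; channel blockers reduce lysis of infected cells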
conditions: P. falciparum Indochina infected erythrocytes, osmotic lysis OD700, called active from +8 up or from −8 down
Activity calls are given as the source filed them.
Field 'call' accepts label 1 = active, label 0 = inactive

entry_smiles=C[C@@H]1CC[C@H]2C(=O)N3[C@@H](CC[C@@H](C)[C@@H]3c3cccc(N4CCOCC4)c3)C(=O)N2[C@H]1c1cccc(Br)c1 group="label 0"
entry_smiles=C=CC[C@@]12N=C(c3ccc(OCCCO)cc3)O[C@@H]1c1ccccc1CN(Cc1ccccc1)C2=O group="label 1"

Task: What is the recorded call for this compound in the test? "CC(C)C[C@@H]1NC(=O)[C@H]2C[C@@H](C(=O)NCCCCCC[N+](C)(C)C)[C@@H](c3ccc(O)cc3)N2C1=O"
Output: label 0

---

assay.overview: binders of probe aFGF10 on microarray, primary screen, stem cell growth factor project, biochemical, small-molecule microarray, fluorescence 635/667 (AID 1071);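 note: score merges 667 nm spot intensity and signal to noise from triplicate slides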
conditions: higher = more signal
readout.name: composite z-score
Please state the value as a number alone, without comment.

compound=O=C1O[C@@H](c2ccccc2)[C@@H](c2ccccc2)N2[C@@H](c3ccccc3OCCO)[C@]3(C(=O)Nc4ccc(C#CC5=CCCCC5)cc43)[C@@H](C(=O)O)[C@H]12 recorded_result=0.627
compound=O=C1O[C@H](c2ccccc2)[C@H](c2ccccc2)N2[C@H]1[C@@H](C(=O)Nc1nc3ccccc3s1)[C@]1(C(=O)Nc3ccc(C#CC4=CCCCC4)cc31)[C@H]2c1ccccc1OCCO recorded_result=0.552
compound=C=CCC1=C[C@H]2[C@H]([C@@H]3C=C[C@]2(CC=C)C(=O)[C@]32CO2)[C@@]2(CO2)C1=O recorded_result=0.612
compound="Cc1ccccc1C(O)C1C=CC2C(=O)N(c3ccccc3)C(=O)C2N1Nc1ccc(C#N)cc1 (stereo not given)" recorded_result=1.15
compound=C[N+](C)(C)CCCCNC(=O)[C@H]1C[C@H]2C(=O)NCC(=O)N2[C@H]1c1cccc(OCCO)c1 recorded_result=1.15
compound=C=C[C@H](OC)[C@@H](OC(=O)Nc1ccc(SC)cc1)c1ccc(O)c(F)c1 recorded_result=0.2
compound=CCN1C(C)=C(C(=O)OC)[C@@H](c2ccccc2)N2C(=O)[C@@]3(C(=O)OC)O[C@@]12[C@@H]1C(=O)N(C)C(=O)[C@@H]13 recorded_result=0.735
compound=C=CCN1C(=O)[C@]2(O[C@H](CCn3cc(CCO)nn3)[C@@H]([Si](C)(C)c3ccc(OC)cc3)[C@@H]2C)c2cc(NC(=O)c3ccc(OC)cc3)ccc21 recorded_result=-0.0488
compound="O=C1OCCC=C[C@H]2OC34C=CCN(Cc5ccccc5)C(=O)[C@H]3N(CCO)C(=O)[C@@H]4C12 (stereo not given in full)" recorded_result=-0.575
compound=O=C1C[C@@](C(=O)NCCN2CCOCC2)(c2ccc([N+](=O)[O-])cc2)[C@@H](c2ccc(CO)cc2)N1C1CCCCC1 recorded_result=0.26

Task: Suppose we examine the compound "C=CC[C@@]1(C(=O)N2CCOCC2)N=C(c2ccc(OCCCO)cc2)O[C@@H]1c1ccccc1" ; what composite z-score value has been reported?
Output: 0.351

Task: Same question for "CO[C@H]1COC(=O)[C@H](Cc2ccccc2)NC(=O)CC=C[C@@H](C)[C@H](OC)COC(=O)CC=C[C@@H]1C" please.
Output: 0.324

Task: Same question for "COc1ccc(C(=O)Nc2ccc(CN3C(=O)[C@]4(O[C@H](CCn5cc(CCO)nn5)[C@@H]([Si](C)(C)c5ccc(OC)cc5)[C@@H]4C)c4ccccc43)cc2)cc1" please.
Output: 1.05

Task: Same question for "COCCOC(=O)N1C(=O)[C@@]2(c3cc(C#CCCO)ccc31)[C@H](c1ccc(OCCO)cc1)N1[C@H](c3ccccc3)[C@H](c3ccccc3)OC(=O)[C@H]1[C@@H]2C(=O)NC[C@H](O)c1ccccc1" please.
Output: 0.889

Task: Same question for "O=C(CS)NCCCCCNC(=O)[C@H]1C[C@H]2C(=O)N[C@@H](Cc3ccccc3)C(=O)N2[C@H]1c1ccc(O)cc1" please.
Output: 0.645

Task: Same question for "C=CC[C@]1(C(=O)O)N=C(c2ccc(OCCCO)cc2)O[C@H]1c1ccccc1N=[N+]=[N-]" please.
Output: 0.427

Task: Same question for "[N-]=[N+]=NCc1ccccc1C[C@@]1(C(=O)N2CCOCC2)N=C(c2ccc(OCCCO)cc2)O[C@@H]1c1ccccc1N=[N+]=[N-]" please.
Output: 0.819

Task: Same question for "CC[C@@H]1C=C(C(=O)O)[C@H](c2ccccc2)N1S(=O)(=O)c1ccc([N+](=O)[O-])cc1" please.
Output: 0.223

Task: Same question for O=C1NC(=O)C2C1C=CC(C(O)C=Cc1ccc([N+](=O)[O-])cc1)N2Nc1ccccn1 (stereo not given) please.
Output: 0.212

Task: Same question for "C=CCNC(=O)[C@H]1[C@@H]2C(=O)O[C@@H](c3ccccc3)[C@@H](c3ccccc3)N2[C@@H](c2ccccc2OCCO)[C@]12C(=O)N(C(=O)OCCOC)c1ccc(C#CCC(C(=O)OC)C(=O)OC)cc12" please.
Output: 0.408
